The origin of these recorded values is ChEMBL document CHEMBL5113480.

ASSAY SUMMARY: Cytotoxicity against human MT4 cells assessed as reduction on cell growth by MTT assay
Assay type: toxicity, cell-based
Please respond with reported CC50 for every item in the list.
Answers are plain numbers, in µM.

stdin: Entry `Cc1cc(Oc2c(C(F)(F)F)ccn(Cc3n[nH]c(=O)n3C)c2=O)ccc1-c1ccc(C#N)cc1` has what CC50?
stdout: 52.1

stdin: Entry `Cn1c(Cn2ccc(C(F)(F)F)c(Oc3ccc(-c4cccc(C#N)c4)cc3F)c2=O)n[nH]c1=O` has what CC50?
stdout: 35.3

stdin: Entry `Cc1cc(-c2ccc(F)c(C#N)c2)ccc1Oc1c(C(F)(F)F)ccn(Cc2n[nH]c(=O)n2C)c1=O` has what CC50?
stdout: 25

Parameter requested: CC50. Apply to each item below.
1. Cn1c(Cn2ccc(C(F)(F)F)c(Oc3ccc(-c4ccc(F)cc4)c(F)c3)c2=O)n[nH]c1=O
2. Cc1cc(Oc2c(C(F)(F)F)ccn(Cc3n[nH]c(=O)n3C)c2=O)ccc1-c1ccc(F)c(C#N)c1
3. Cn1c(Cn2ccc(C(F)(F)F)c(Oc3ccc(-c4cccc(C#N)c4)c(F)c3F)c2=O)n[nH]c1=O
4. Cc1ccc(-c2cc(F)c(Oc3c(C(F)(F)F)ccn(Cc4n[nH]c(=O)n4C)c3=O)c(F)c2)cc1
5. Cn1c(Cn2ccc(C(F)(F)F)c(Oc3cc(Cl)cc(C#N)c3)c2=O)n[nH]c1=O

stdout:
1. 25.6
2. 42.5
3. 48.8
4. 20.5
5. 293

Parameter requested: CC50. Apply to each item below.
1. Cn1c(Cn2ccc(C(F)(F)F)c(Oc3ccc(-c4ccc(F)c(C#N)c4)cc3)c2=O)n[nH]c1=O
2. Cc1cccc(-c2ccc(Oc3c(C(F)(F)F)ccn(Cc4n[nH]c(=O)n4C)c3=O)cc2)c1

stdout:
1. 49.1
2. 32.3

Parameter requested: CC50. Apply to each item below.
1. Cc1cc(-c2cccc(F)c2)ccc1Oc1c(C(F)(F)F)ccn(Cc2n[nH]c(=O)n2C)c1=O
2. Cn1c(Cn2ccc(C(F)(F)F)c(Oc3ccc(-c4ccc(C#N)cc4)cc3Cl)c2=O)n[nH]c1=O

stdout:
1: 26.7; 2: 21.5

Parameter requested: CC50. Apply to each item below.
1. Cc1cc(Oc2c(C(F)(F)F)ccn(Cc3n[nH]c(=O)n3C)c2=O)ccc1-c1cccc(C#N)c1
2. Cn1c(Cn2ccc(C(F)(F)F)c(Oc3ccc(-c4ccc(C#N)cc4)c(F)c3)c2=O)n[nH]c1=O
3. COc1cc(-c2cccc(C#N)c2)ccc1Oc1c(C(F)(F)F)ccn(Cc2n[nH]c(=O)n2C)c1=O
4. Cc1cccc(-c2ccc(Oc3c(C(F)(F)F)ccn(Cc4n[nH]c(=O)n4C)c3=O)cc2F)c1
5. Cn1c(Cn2ccc(C(F)(F)F)c(Oc3ccc(-c4ccc(F)cc4)cc3Cl)c2=O)n[nH]c1=O

stdout:
1. 82.7
2. 48.5
3. 126
4. 27.7
5. 16.7

###

Please respond with reported CC50 for every item in the list.
ASSAY SUMMARY: Cytotoxicity against human MT4 cells assessed as reduction on cell growth by MTT assay
Assay type: toxicity, cell-based
Quick note: unit goes after the number.

Consider the following illustrative entries.
stdin: Entry `Cn1c(Cn2ccc(C(F)(F)F)c(Oc3cc(C#N)cc(-c4cccc(F)c4)c3)c2=O)n[nH]c1=O` has what CC50?
stdout: 19.1 µM

stdin: Entry `Cc1cccc(-c2cc(F)c(Oc3c(C(F)(F)F)ccn(Cc4n[nH]c(=O)n4C)c3=O)c(F)c2)c1` has what CC50?
stdout: 20.9 µM

stdin: Entry `Cn1c(Cn2ccc(C(F)(F)F)c(Oc3ccc(-c4ccc(F)c(C#N)c4)c(F)c3)c2=O)n[nH]c1=O` has what CC50?
stdout: 69.5 µM

stdin: Entry `Cc1ccc(-c2ccc(Oc3c(C(F)(F)F)ccn(Cc4n[nH]c(=O)n4C)c3=O)c(C)c2)cc1` has what CC50?
stdout: 16.9 µM

Parameter requested: CC50. Apply to each item below.
1. Cc1cccc(-c2ccc(Oc3c(C(F)(F)F)ccn(Cc4n[nH]c(=O)n4C)c3=O)c(Cl)c2)c1
2. Cn1c(Cn2ccc(C(F)(F)F)c(Oc3ccc(-c4cccc(F)c4)cc3Cl)c2=O)n[nH]c1=O

stdout:
1: 24.7 µM; 2: 20.1 µM

###

ASSAY SUMMARY: Selectivity index, ratio of CC50 for cytotoxicity against human MT4 cells to EC50 of Anti-HIV activity against HIV-1 IIIB infected in human MT4 cells
Assay type: toxicity, cell-based
CONDITION: read-out: Ratio CC50/EC50
Assign labels as follows, please: Criterion met for selectivity ratio below 6; Criterion not met for selectivity ratio equal to or exceeding 6.

stdin: Is it true that selectivity ratio reported for `Cc1cc(Oc2c(C(F)(F)F)ccn(Cc3n[nH]c(=O)n3C)c2=O)ccc1-c1ccc(F)c(C#N)c1` is less than 6?
stdout: Criterion not met

stdin: Is it true that selectivity ratio reported for `Cc1ccc(-c2ccc(Oc3c(C(F)(F)F)ccn(Cc4n[nH]c(=O)n4C)c3=O)c(C)c2)cc1` is less than 6?
stdout: Criterion met

stdin: Is it true that selectivity ratio reported for `Cc1ccc(-c2ccc(Oc3c(C(F)(F)F)ccn(Cc4n[nH]c(=O)n4C)c3=O)c(Cl)c2)cc1` is less than 6?
stdout: Criterion met

stdin: Is it true that selectivity ratio reported for `Cc1cccc(-c2ccc(Oc3c(C(F)(F)F)ccn(Cc4n[nH]c(=O)n4C)c3=O)cc2C)c1` is less than 6?
stdout: Criterion met

stdin: Is it true that selectivity ratio reported for `Cc1ccc(-c2ccc(Oc3c(C(F)(F)F)ccn(Cc4n[nH]c(=O)n4C)c3=O)cc2)cc1` is less than 6?
stdout: Criterion met

stdin: Is it true that selectivity ratio reported for `Cn1c(Cn2ccc(C(F)(F)F)c(Oc3c(F)cc(-c4cc(F)cc(C#N)c4)cc3F)c2=O)n[nH]c1=O` is less than 6?
stdout: Criterion not met

stdin: Is it true that selectivity ratio reported for `Cc1cc(-c2cccc(F)c2)ccc1Oc1c(C(F)(F)F)ccn(Cc2n[nH]c(=O)n2C)c1=O` is less than 6?
stdout: Criterion met

stdin: Is it true that selectivity ratio reported for `Cc1cccc(-c2ccc(Oc3c(C(F)(F)F)ccn(Cc4n[nH]c(=O)n4C)c3=O)c(C)c2)c1` is less than 6?
stdout: Criterion met

stdin: Is it true that selectivity ratio reported for `Cn1c(Cn2ccc(C(F)(F)F)c(Oc3c(F)cc(-c4ccc(F)cc4)cc3F)c2=O)n[nH]c1=O` is less than 6?
stdout: Criterion met

stdin: Is it true that selectivity ratio reported for `Cn1c(Cn2ccc(C(F)(F)F)c(Oc3cc(C#N)cc(-c4ccc(F)c(C#N)c4)c3)c2=O)n[nH]c1=O` is less than 6?
stdout: Criterion not met

###

Please respond with reported CC50 for every item in the list.
ASSAY SUMMARY: Cytotoxicity against human MT4 cells assessed as reduction on cell growth by MTT assay
Assay type: toxicity, cell-based
Answers are plain numbers, in µM.

Parameter requested: CC50. Apply to each item below.
1. Cn1c(Cn2ccc(C(F)(F)F)c(Oc3ccc(-c4cccc(F)c4)c(F)c3)c2=O)n[nH]c1=O
2. Cn1c(Cn2ccc(C(F)(F)F)c(Oc3ccc(-c4cc(F)cc(C#N)c4)c(F)c3)c2=O)n[nH]c1=O
3. Cn1c(Cn2ccc(C(F)(F)F)c(Oc3ccc(-c4cccc(C#N)c4)cc3Cl)c2=O)n[nH]c1=O
4. Cn1c(Cn2ccc(C(F)(F)F)c(Oc3ccc(-c4ccc(C#N)cc4)cc3)c2=O)n[nH]c1=O
5. Cc1cc(Oc2c(C(F)(F)F)ccn(Cc3n[nH]c(=O)n3C)c2=O)ccc1-c1ccc(F)cc1

stdout:
1: 51.5; 2: 105; 3: 22.9; 4: 74.3; 5: 23.7

###

ASSAY SUMMARY: Selectivity index, ratio of CC50 for cytotoxicity against human MT4 cells to EC50 of Anti-HIV activity against HIV-1 IIIB infected in human MT4 cells
Assay type: toxicity, cell-based
CONDITION: read-out: Ratio CC50/EC50
Please respond with reported selectivity ratio for every item in the list.
One number for each entry.

Parameter requested: selectivity ratio. Apply to each item below.
1. Cc1cccc(-c2ccc(Oc3c(C(F)(F)F)ccn(Cc4n[nH]c(=O)n4C)c3=O)cc2F)c1
2. Cn1c(Cn2ccc(C(F)(F)F)c(Oc3ccc(-c4cccc(C#N)c4)c(F)c3F)c2=O)n[nH]c1=O

stdout:
1. 6.05
2. 50.8

Parameter requested: selectivity ratio. Apply to each item below.
1. Cc1ccccc1-c1ccc(Oc2c(C(F)(F)F)ccn(Cc3n[nH]c(=O)n3C)c2=O)cc1F
2. Cn1c(Cn2ccc(C(F)(F)F)c(Oc3c(F)cc(-c4ccc(C#N)cc4)cc3F)c2=O)n[nH]c1=O
3. Cn1c(Cn2ccc(C(F)(F)F)c(Oc3ccc(-c4cccc(F)c4)c(F)c3)c2=O)n[nH]c1=O
4. Cn1c(Cn2ccc(C(F)(F)F)c(Oc3cc(C#N)cc(-c4cccc(F)c4)c3)c2=O)n[nH]c1=O

stdout:
8.6
29.5
36.4
1270

Parameter requested: selectivity ratio. Apply to each item below.
1. COc1cc(-c2ccc(F)c(C#N)c2)ccc1Oc1c(C(F)(F)F)ccn(Cc2n[nH]c(=O)n2C)c1=O
2. Cc1ccc(-c2ccc(Oc3c(C(F)(F)F)ccn(Cc4n[nH]c(=O)n4C)c3=O)cc2F)cc1

stdout:
1: 5.74; 2: 3.52
